- Tested on: HCT-116 colon
- experiment: NCI tumour cell line growth inhibition, 48 h
Listed compounds paired with reported TGI

CC(=O)CC(=O)CCCC(=O)Nc1ccc(Cl)cc1C ... > 100 µM
O=C(Nc1ccc(Cl)cc1)c1cc(S(=O)(=O)Nc2n[nH]c(=O)[nH]2)c(SSc2cc(Cl)c(C(=O)Nc3ccc(Cl)cc3)cc2S(=O)(=O)Nc2n[nH]c(=O)[nH]2)cc1Cl ... > 100 µM
CCOc1ccccc1NC(=O)C(=O)CC(=O)C1=C(C)Nc2ccccc2S1 ... > 100 µM

Query: Value lookup for TGI; key = O=c1[nH]c(=S)[nH]c2c1sc(=S)n2-c1ccccc1
Response: > 100 µM

Query: Fill in the blank: the reported TGI of COc1ccc(CN2c3ccccc3Sc3ccccc32)cc1F is ____.
Response: > 100 µM

Query: Param item = CCOC(=O)C1=C(Nc2ccccc2)OC/C1=N\NC(=O)Cc1ccccc1 ; retrieve measured TGI.
Response: > 50 µM

Query: Entry under review: O=C1CCc2c3c(c4c([nH]c5ccccc54)c2CC1)C(=O)NC3=O . Reported TGI?
Response: > 100 µM

Query: Consider the compound O=C(CC(=O)c1ccncc1)c1ccccc1 and give its measured TGI.
Response: > 100 µM

Query: Which TGI reading was recorded for the compound C=C1CC(OC(C)=O)/C=C(/C)CCC(C(C)(C)O)CC1O (stereo not drawn) ?
Response: > 100 µM

Query: Given the entry CCOC(=O)C(Cc1ccc2c(c1)CCC2)(Cc1ccc2c(c1)CCC2)C(=O)OCC , report its measured TGI.
Response: > 100 µM

* * *

The entries below are paired with their reported TGI.
- Tested on: RPMI-8226 leukemia
- experiment: NCI tumour cell line growth inhibition, 48 h

Would you please look over these solved cases?
C=CCC(C(=O)OC)C1(C(=O)OC)c2[nH]c3ccccc3c2CCN1Cc1ccccc1 (stereo unspecified) ... > 100 µM
CC1=NN(c2nc(N)nc(CS(C)(=O)=O)n2)C(C)(C)C1 ... > 100 µM
O=C1/C(=C/c2ccc(O)cc2)NC(=S)N1CN1CCCCC1 ... > 100 µM
COC(=O)/C(C#N)=C\N1CCN(C(=O)c2ccco2)C1=S ... 62.4 µM
C/C(CN1C(=O)c2ccccc2C1=O)=N\NS(=O)(=O)c1ccccc1 ... > 100 µM
O=C1CCc2c3c(c4c([nH]c5ccccc54)c2CC1)C(=O)NC3=O ... 64.1 µM
CC(=O)OCC1C(C(C)OC(C)=O)CCC2C1CCC1(C)C(OC(C)=O)CCC21 (stereo unspecified) ... 69.9 µM
CN(C)CC(C(=O)c1ccccc1)c1ccccc1 (stereo unspecified) ... 7.49 µM

Query: What value of measured TGI is listed for CCCS(=O)(=O)O ?
Response: > 100 µM

Query: Please give the measured TGI for this compound: COCCO
Response: > 100 µM

Query: Any idea what TGI was measured for COc1ccc(C2CCc3nc4nc(N)nc(N)c4cc3C2)cc1 (stereo unspecified) ?
Response: > 100 µM

Query: Bench note: what TGI did C1CNCCN2CCCNCCN(C1)CC2 show?
Response: > 100 µM

* * *

- Test system: NCI-H23 lung
- experiment: NCI tumour cell line growth inhibition, 48 h
The following compounds are listed with their measured TGI values.

Some entries whose results are on file:
CCOC(=O)C(SCCO)C(C(=O)OCC)n1ccc(N)nc1=O (centres undefined) ... > 100 µM
NCCCNCCSSCc1ccccc1CSSCCNCCCN ... > 100 µM
CCCCCCCCCCCCCCCCOC(=O)C(C(=O)OCCCCCCCCCCCCCCCC)[N+](C)(C)CCOC(C)=O ... 30.3 µM
CCCOc1ccc(/C(Cl)=C(\C=O)c2ccc(OC)c(OC)c2)cc1OCCC ... 21.6 µM
O=C(ON=c1c2ccccc2ccc2ccccc12)c1cc([N+](=O)[O-])cc([N+](=O)[O-])c1 ... > 100 µM

Next up:
Query: Quick check: TGI of C=CCC(C(=O)OC)C1(C(=O)OC)c2[nH]c3ccccc3c2CCN1Cc1ccccc1 (centres undefined) ?
Response: > 100 µM

* * *

- Tested on: A549 NSCLC
- experiment: NCI tumour cell line growth inhibition, 48 h
endpoint-name: TGI

CS(C)(=O)=N/C=C\C(=O)C(Cl)(Cl)Cl ... > 100 µM
Cc1ccc2nc3c(C(=O)NCCN(C)C)cccc3cc2c1 ... 4 µM
C/C(CN1C(=O)c2ccccc2C1=O)=N\NS(=O)(=O)c1ccccc1 ... > 100 µM

Query: I am curious: what TGI value has been reported for NC(=O)c1ccccc1NC(=O)C(=O)C(C(=O)c1ccc2ccccc2c1)C1OC(=O)c2ccccc21 (centres undefined) ?
Response: 50.5 µM

Query: Given the entry CCCCc1ccc(Nc2nc3c(ncn3C3OC(COC(C)=O)C(OC(C)=O)C3OC(C)=O)c(=O)[nH]2)cc1 (centres undefined) , report its measured TGI.
Response: > 100 µM

Query: Fill in the blank: the reported TGI of COc1ccc2c(c1)C(=O)c1c-2n(CCCN=[N+]=[N-])c(=O)c2ccccc12 is ____.
Response: > 100 µM

Query: Given O=C1NC(=NCC(CO)c2ccccc2)S/C1=C\c1ccc2ncccc2c1 (centres undefined) , state its recorded TGI.
Response: > 25 µM

* * *

Parameter TGI: see the listing below.
- Test system: UACC-62 melanoma
- experiment: NCI tumour cell line growth inhibition, 48 h

Worked examples, 2 compounds total:
CC1C2Cc3ccc(O)cc3C1(C)CCN2C (stereo unspecified) ... > 100 µM
CCOC(=O)C(SCCO)C(C(=O)OCC)n1ccc(N)nc1=O (stereo unspecified) ... > 100 µM

Query: Item O=C(c1cc2ccccc2[nH]1)C(O)(c1cc2ccccc2[nH]1)c1cc2ccccc2[nH]1 with UACC-62 melanoma - TGI?
Response: > 246 µM

Query: Provide the documented TGI with UACC-62 melanoma as the system for O=C1NC(=NCc2cccs2)SC1Cc1ccc2ncccc2c1 (stereo unspecified)
Response: > 25 µM

Query: I'm curious: which TGI was measured for C=CCN1CCC(OC(=O)C(O)(/C=C\CC)C2CCCC2)CC1 (stereo unspecified) tested on UACC-62 melanoma?
Response: > 100 µM

Query: Could you share what TGI was measured for NC(=O)c1cnc2sc3ccccc3n2c1=O , tested on UACC-62 melanoma?
Response: > 100 µM

* * *

- System: SNB-19 CNS
- experiment: NCI tumour cell line growth inhibition, 48 h
endpoint-name: TGI

Query: I am curious: what TGI value has been reported for C=CCC(C(=O)OC)C1(C(=O)OC)c2[nH]c3ccccc3c2CCN1Cc1ccccc1 (configuration not stated) ?
Response: > 100 µM

Query: Which TGI reading was recorded for the molecule COc1ccc2c(c1)/C(=C(\C(Cl)=C(\Cl)N1CCCCC1)[N+](=O)[O-])N2 ?
Response: > 100 µM

Query: Reported TGI for COc1ccc(/C=C/c2cc(OC)c(O[Si](C)(C)C(C)(C)C)c(OC)c2)cc1 : what is it?
Response: > 100 µM

* * *

MCF7 breast data, read-out GI50

These solved cases illustrate the format of a correct answer.
Clc1ccc(-c2nc3c(-c4ccc(Cl)cc4)nc(-c4ccccc4)cn3c2-c2ccc(Cl)cc2)cc1 ... > 50 µM
COc1ccc(Nc2c3ccccc3nc3c2c2ccccc2n3C)cc1 ... 28.3 µM

Turning now to a further record.
Query: I'd like to know its GI50. The compound in question is CCN(CC)CCN1C(=O)c2cccc3c(-c4ccc5c(c4)ncn5C4CCCCC4)ccc(c23)C1=O
Response: 1.74 µM

* * *

- Test system: NCI/ADR-RES ovarian
endpoint-name: GI50

Here are 3 compounds together with their reported answers.
CC(C)=CC/C=C(/C)[C@H]1CC[C@]2(C)[C@@H]1CC[C@@H]1[C@@]3(C)CCC(=O)NC(C)(C)[C@@H]3CC[C@]12C ... 22.2 µM
COC(=O)[C@]12CC[C@@H](C)[C@H](C)[C@@H]1C1=CC[C@@H]3[C@@]4(C)C[C@@H](OC(=O)c5ccco5)[C@H](O)[C@@](C)(CO)[C@@H]4[C@H](O)C[C@@]3(C)[C@]1(C)CC2 ... 2.59 µM
O=S(=O)(NCCNc1nccc(-c2c(-c3cccc(O)c3)nc3sccn23)n1)c1ccc(F)cc1 ... 53 µM

Turning to the following compound.
Query: Can you look up GI50 on NCI/ADR-RES ovarian for O=C(CCCn1c2c(sc3ncccc32)c(=O)n2nnc(-c3ccccc3)c12)NCCc1cnc[nH]1 ?
Response: 34.1 µM

* * *

- Tested on: IGROV1 ovarian
- experiment: NCI tumour cell line growth inhibition, 48 h
endpoint-name: TGI

Here's what some known entries look like.
CN(C)c1nc(N(C)C)nc(N(C)CN(C)c2ccccc2)n1 ... > 100 µM
COC(=O)C12CCC(C(=O)OC)(Cc3c(c4ccccc4n3S(=O)(=O)c3ccccc3)C1)C2=O (centres undefined) ... > 100 µM
CCN(CC)CCN1c2ccccc2Sc2ccc3ccccc3c21 ... 24.5 µM
CC1=C(C(=O)Nc2cccc(C(F)(F)F)c2)C(c2ccc(O)cc2)C(C(=O)Nc2cccc(C(F)(F)F)c2)=C(C)N1 ... 89.2 µM
CC1=CC(c2ccccc2)OP1(=O)c1ccccc1 (centres undefined) ... > 100 µM
c1ccc(Cc2cccc3cc(-c4ccc(-c5ccccc5)cc4)[nH]c23)cc1 ... > 100 µM
CCC(=O)C1=C(OC(C)=O)C2Cc3c(n(C)c4ccccc34)C(C1)N2C (centres undefined) ... > 100 µM
CCN(CC)CCn1ncc2ccc3c(c(=O)c4cccnc4n3CCN(CC)CC)c21 ... 4.22 µM

Here is another compound to look at.
Query: Request - read-out TGI | tested on IGROV1 ovarian | compound Clc1ccc(-c2nc3c(-c4ccc(Cl)cc4)nc(-c4ccccc4)cn3c2-c2ccc(Cl)cc2)cc1
Response: > 50 µM
